- tested-target: MAGL (Homo sapiens, UniProt Q99685)
- Sequence (Q99685 1-303): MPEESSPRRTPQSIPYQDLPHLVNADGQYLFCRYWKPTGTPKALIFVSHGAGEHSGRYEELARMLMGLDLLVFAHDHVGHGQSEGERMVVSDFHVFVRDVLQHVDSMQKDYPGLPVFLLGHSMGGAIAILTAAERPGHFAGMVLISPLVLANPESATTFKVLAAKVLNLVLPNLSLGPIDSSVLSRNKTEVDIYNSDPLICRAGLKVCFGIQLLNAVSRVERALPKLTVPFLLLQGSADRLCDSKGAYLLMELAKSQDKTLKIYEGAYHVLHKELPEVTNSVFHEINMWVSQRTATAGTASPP
pIC50: −log10 of the molar value.
# binarize pIC50: threshold 9 inclusive, high side TRUE, low side FALSE

INSERT INTO assay_data (compound, label_class) VALUES
  ('O=C(N1CC(c2ccc(OC(F)(F)F)cc2F)C1)N1CC2(CC(n3cnc(C4CC4)n3)C2)C1', 'TRUE'),
  ('O=C(N1CC(Oc2ccc(C3CC3)cc2)C1)N1CC2(CC(n3cnc(C4CC4)n3)C2)C1', 'TRUE'),
  ('O=C(C1CC(OCC2(C(F)(F)F)CC2)C1)N1CC2(CC(n3cnc(C4CC4)n3)C2)C1 (stereo not shown)', 'FALSE'),
  ('O=C(N1CC2(CCN(S(=O)(=O)C34CC(C(F)(F)F)(C3)C4)CC2)C1)N1CC2(CC(n3cnc(C4CC4)n3)C2)C1', 'FALSE');

###

Below, each entry is listed alongside its reported log10 IC50.
- tested-target: MAGL (Homo sapiens, UniProt Q99685)
- Sequence (Q99685 1-303): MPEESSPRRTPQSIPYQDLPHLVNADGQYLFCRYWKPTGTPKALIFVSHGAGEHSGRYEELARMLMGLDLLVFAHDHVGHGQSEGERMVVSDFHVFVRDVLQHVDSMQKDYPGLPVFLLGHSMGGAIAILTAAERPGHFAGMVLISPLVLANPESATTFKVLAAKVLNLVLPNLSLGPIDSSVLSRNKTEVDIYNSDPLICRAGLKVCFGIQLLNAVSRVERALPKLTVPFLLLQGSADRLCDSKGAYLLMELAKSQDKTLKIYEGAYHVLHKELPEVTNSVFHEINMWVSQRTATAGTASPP
readout-label: log10 IC50 (log10 of the value in nM)

INSERT INTO results (item_smiles, tested_target, readout_label, reported_value) VALUES
  ('O=C(N1CC(c2ccc(OC(F)(F)F)cc2Cl)C1)N1CC2(CC(n3cnc(C4CC4)n3)C2)C1', 'MAGL (Homo sapiens, UniProt Q99685)', 'log10 IC50', -0.22),
  ('CC1(NS(=O)(=O)N2CC3(CN(C(=O)N4CC5(CC(n6cnc(C7CC7)n6)C5)C4)C3)C2)CC1', 'MAGL (Homo sapiens, UniProt Q99685)', 'log10 IC50', 1.51),
  ('O=C(N1CC2(CC(Oc3cc(F)ccc3F)C2)C1)N1CC2(CC(n3cnc(C4CC4)n3)C2)C1', 'MAGL (Homo sapiens, UniProt Q99685)', 'log10 IC50', 0.11),
  ('O=C(N1CC(c2ccc(C3(C(F)(F)F)CC3)cc2)C1)N1CC2(CC(n3cnc(C4CC4)c3)C2)C1', 'MAGL (Homo sapiens, UniProt Q99685)', 'log10 IC50', -0.70),
  ('O=C(N1CC(Oc2ccc(C3CC3)cc2F)C1)N1CC2(CC(n3cnc(C4CC4)n3)C2)C1', 'MAGL (Homo sapiens, UniProt Q99685)', 'log10 IC50', -0.70),
  ('O=C(N1CC2(CC(n3cnc(C4CC4)n3)C2)C1)N1CC2(C1)CN(S(=O)(=O)NCC1(C(F)(F)F)CC1)C2', 'MAGL (Homo sapiens, UniProt Q99685)', 'log10 IC50', 1.09),
  ('O=C(N1CC(C23CC(CNC4(C(F)(F)F)CC4)(C2)C3)C1)N1CC2(CC(n3cnc(C4CC4)n3)C2)C1', 'MAGL (Homo sapiens, UniProt Q99685)', 'log10 IC50', -1.30);

###

- tested-target: MAGL (Homo sapiens, UniProt Q99685)
readout-label: IC50 (nM)

INSERT INTO assay_data (compound, tested_target, reported_value) VALUES
  ('Cc1ccc(COC2CN(C(=O)N3CC4(CC(n5cnc(C6CC6)c5)C4)C3)C2)cc1C(F)(F)F', 'MAGL (Homo sapiens, UniProt Q99685)', 4.1),
  ('O=C(N1CC(c2ccc(NCC3(C(F)(F)F)CC3)cn2)C1)N1CC2(CC(n3cnc(C4CC4)n3)C2)C1', 'MAGL (Homo sapiens, UniProt Q99685)', 0.74),
  ('O=C(N1CC2(CC(n3cnc(C4CC4)n3)C2)C1)N1CC2(C1)CN(S(=O)(=O)c1cccc(Cl)n1)C2', 'MAGL (Homo sapiens, UniProt Q99685)', 58.6),
  ('N#Cc1ccc(CC2CC3(C2)CN(C(=O)N2CC4(CC(n5cnc(C6(O)CC6)n5)C4)C2)C3)cc1C(F)(F)F', 'MAGL (Homo sapiens, UniProt Q99685)', 1.57),
  ('O=C(N1CC(c2ccc(OC(F)(F)F)cc2)C1)N1CC2(CC(n3cnc(C4CC4)n3)C2)C1', 'MAGL (Homo sapiens, UniProt Q99685)', 0.4),
  ('CC(C)(C)Cn1nncc1-c1ccc(C2CN(C(=O)N3CC4(C3)CN(c3cncc(F)c3)C4)C2)cc1', 'MAGL (Homo sapiens, UniProt Q99685)', 11.9),
  ('O=C(N1CC2(CC(n3cnc(C4(O)CC4)n3)C2)C1)N1CC2(CC[C@H](Cc3ccc(S(=O)(=O)C(F)(F)F)cc3)C2)C1', 'MAGL (Homo sapiens, UniProt Q99685)', 1.35),
  ('O=C(N1CCC([C@H](c2ccc(F)cc2)c2nc(C3CC3)no2)CC1)N1CC2(CC(n3cnc(C4CC4)n3)C2)C1', 'MAGL (Homo sapiens, UniProt Q99685)', 0.4),
  ('O=C(N1CC(C23CC(Cc4nnc(C5CC5)[nH]4)(C2)C3)C1)N1CC2(CC(n3cnc(C4CC4)n3)C2)C1', 'MAGL (Homo sapiens, UniProt Q99685)', 4.88),
  ('O=C(N1CC2(CC(n3cnc(C4CC4)n3)C2)C1)N1CC2(CN(Cc3ccc(F)cc3F)C2)C1', 'MAGL (Homo sapiens, UniProt Q99685)', 5.4),
  ('O=C(N1C[C@H]2CC(Oc3ccc(F)cc3Cl)C[C@H]2C1)N1CC2(CC(n3cnc(C4CC4)c3)C2)C1 (mixture of isomers)', 'MAGL (Homo sapiens, UniProt Q99685)', 6.3),
  ('O=C(N1CC(Oc2ccc(C(F)(F)F)nc2)C1)N1CC2(CC(n3cnc(C4CC4)n3)C2)C1', 'MAGL (Homo sapiens, UniProt Q99685)', 32.7),
  ('CS(=O)(=O)c1ccc(CC2CC3(C2)CN(C(=O)N2CC4(CC(n5cnc(C(F)(F)F)n5)C4)C2)C3)cc1', 'MAGL (Homo sapiens, UniProt Q99685)', 1.25),
  ('CS(=O)(=O)c1ccc(CN2CC3(C2)CN(C(=O)N2CC4(CC(n5cnc(C6CC6)n5)C4)C2)C3)cc1', 'MAGL (Homo sapiens, UniProt Q99685)', 39.6);

###

Target or system MAGL (Homo sapiens, UniProt Q99685); recorded quantity IC50.
readout-label: IC50 (nM)

INSERT INTO measurements (item_smiles, tested_target, reported_value) VALUES
  ('O=C(N1CC(NCc2ccc(C(F)(F)F)cc2Cl)C1)N1CC2(CC(c3ccc(C(F)(F)F)nc3)C2)C1', 'MAGL (Homo sapiens, UniProt Q99685)', 1300),
  ('Cc1cc(C(=O)N2CC3(CC(n4cnc(C5CC5)c4)C3)C2)cnc1OCC1(C)CC1', 'MAGL (Homo sapiens, UniProt Q99685)', 31.3),
  ('O=C(N1CC(Oc2ccc(C3CC3)cn2)C1)N1CC2(CC(n3cnc(C4CC4)n3)C2)C1', 'MAGL (Homo sapiens, UniProt Q99685)', 1.3),
  ('O=C(N1CC2(CC(n3cnc(C4CC4)n3)C2)C1)N1CC2(CN(Cc3ccc(F)cc3C(F)(F)F)C2)C1', 'MAGL (Homo sapiens, UniProt Q99685)', 0.4),
  ('O=C(N1CC2(CC(Oc3ccc(C(F)(F)F)nc3)C2)C1)N1CC2(CC(n3cnc(C4CC4)n3)C2)C1', 'MAGL (Homo sapiens, UniProt Q99685)', 2.2),
  ('O=C(N1CC2(CCN(Cc3ccc(C(F)(F)F)nc3)CC2)C1)N1CC2(CC(n3cnc(C4(O)CC4)n3)C2)C1', 'MAGL (Homo sapiens, UniProt Q99685)', 197),
  ('O=C(N1CC2(CC(Cc3ccc(F)cc3F)C2)C1)N1CC2(CC(n3cnc(C4CCC4)n3)C2)C1', 'MAGL (Homo sapiens, UniProt Q99685)', 0.1);

Attribution: patent US20240199587A1
